This collection of values is drawn from ChEMBL document CHEMBL1961873.

# Test system: Platelet-derived growth factor receptor alpha (Homo sapiens), P16234 [V561D]
# Sequence (P16234 whole entry V561D): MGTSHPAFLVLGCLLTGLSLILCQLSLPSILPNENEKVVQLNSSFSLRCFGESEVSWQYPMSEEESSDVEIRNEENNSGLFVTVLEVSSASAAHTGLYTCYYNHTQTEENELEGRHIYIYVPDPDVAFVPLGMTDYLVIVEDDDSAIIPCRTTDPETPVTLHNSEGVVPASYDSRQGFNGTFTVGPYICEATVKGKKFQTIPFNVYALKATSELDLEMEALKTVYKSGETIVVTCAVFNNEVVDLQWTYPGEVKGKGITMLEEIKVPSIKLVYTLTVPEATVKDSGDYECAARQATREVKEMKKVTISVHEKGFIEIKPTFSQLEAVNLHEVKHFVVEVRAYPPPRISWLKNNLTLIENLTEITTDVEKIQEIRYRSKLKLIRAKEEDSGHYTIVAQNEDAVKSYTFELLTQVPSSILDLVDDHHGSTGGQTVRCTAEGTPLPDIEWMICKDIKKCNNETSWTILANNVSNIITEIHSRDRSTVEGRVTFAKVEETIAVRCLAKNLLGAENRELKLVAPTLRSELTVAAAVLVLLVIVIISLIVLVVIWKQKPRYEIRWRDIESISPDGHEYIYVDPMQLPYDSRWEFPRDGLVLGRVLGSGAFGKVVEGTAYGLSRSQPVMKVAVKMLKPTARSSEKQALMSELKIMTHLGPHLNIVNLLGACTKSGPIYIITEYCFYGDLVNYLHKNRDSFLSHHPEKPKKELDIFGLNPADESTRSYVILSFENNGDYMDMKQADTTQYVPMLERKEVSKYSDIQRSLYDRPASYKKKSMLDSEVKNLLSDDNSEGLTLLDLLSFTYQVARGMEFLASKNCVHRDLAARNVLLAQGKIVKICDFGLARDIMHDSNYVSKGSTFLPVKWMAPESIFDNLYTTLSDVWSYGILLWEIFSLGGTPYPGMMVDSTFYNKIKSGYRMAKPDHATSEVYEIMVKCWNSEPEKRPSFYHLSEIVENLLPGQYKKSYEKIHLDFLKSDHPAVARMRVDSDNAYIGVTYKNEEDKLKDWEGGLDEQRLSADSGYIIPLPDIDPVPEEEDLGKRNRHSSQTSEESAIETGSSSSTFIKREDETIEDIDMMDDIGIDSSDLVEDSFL
# Run Parameters: at 1 µM
Provide the reported inhibition of each item.
The answer should read as a number with its unit following.

Briefly, inhibition measured for `O=C(Nc1ccc(Oc2ccc3[nH]c(NC(=O)c4ccccc4)nc3c2)cc1)Nc1cc(C(F)(F)F)ccc1F` : 79.4%

Briefly, inhibition measured for `O=C(Nc1n[nH]c2nc(-c3ccco3)ccc12)C1CC1` : 7.73%

Briefly, inhibition measured for `CN(C)c1ccc2c(c1)/C(=C/Nc1ccc(S(N)(=O)=O)cc1)C(=O)N2` : 60.9%

Briefly, inhibition measured for `CN(C)CCOc1ccc(-c2cc(-c3ccc4c(c3)CCC4=NO)c(-c3ccncc3)o2)cc1` : 4.25%

Briefly, inhibition measured for `CN1CCN(CCCNc2nc3ccc(Oc4ccc(NC(=O)Nc5cc(C(F)(F)F)ccc5F)cc4)cc3[nH]2)CC1` : 80.7%

Briefly, inhibition measured for `COc1cc2ncn(-c3cc(OCCc4ccccc4)c(C(N)=O)s3)c2cc1OC` : 39.8%

Briefly, inhibition measured for `CCc1cccc(CC)c1/C=C/c1cncc(C(=O)NC)c1` : 3.75%

Briefly, inhibition measured for `NC(=O)Cc1ccccc1Oc1nccc(-c2c(-c3ccc(F)cc3)ncn2C2CCNCC2)n1` : 4.04%

Briefly, inhibition measured for `Cc1ccc(C(=O)NC(C)C)cc1-c1ccc(C(=O)NCC2CC2)cc1` : 2.98%

Briefly, inhibition measured for `CCS(=O)(=O)c1ccc(OC)c(Nc2ncc(-c3ccccc3Cl)o2)c1` : 15.1%

Briefly, inhibition measured for `C[C@@H](Oc1cc(-n2cnc3ccc(OCC4CCN(C)CC4)cc32)sc1C(N)=O)c1ccccc1Cl` : 64.7%

Briefly, inhibition measured for `O=C1Nc2ccc(I)cc2C1=Cc1cc(Br)c(O)c(Br)c1` : 7.24%

Briefly, inhibition measured for `Fc1ccc(-c2ncn(C3CCNCC3)c2-c2ccnc(Oc3ccc(F)c(F)c3)n2)cc1` : 5.74%

Briefly, inhibition measured for `CS(=O)(=O)CCNCc1ccc(-c2ccc3ncnc(Nc4ccc(OCc5ccccc5)c(Br)c4)c3c2)o1` : 5.85%

Briefly, inhibition measured for `O=C1Nc2ccccc2/C1=C/Nc1ccc(-n2cncn2)cc1` : 44.8%

Briefly, inhibition measured for `NS(=O)(=O)c1ccc(N/N=C2\C(=O)Nc3ccc(C(=O)NCCCn4ccnc4)cc32)cc1` : 47%

Briefly, inhibition measured for `COc1ccc2cc(-c3c(-c4ccncc4)nc(-c4ccc(S(C)(=O)=O)cc4C)n3C)ccc2c1` : 15.3%

Briefly, inhibition measured for `Fc1ccc(-c2ncn(CCCN3CCOCC3)c2-c2ccncc2)cc1` : 3.42%

Briefly, inhibition measured for `c1ccc(Oc2ccc(Nc3ncc(-c4ccccc4)o3)cc2)cc1` : 19.6%

Briefly, inhibition measured for `COC(=O)Nc1nc2ccc(Sc3ccc(NC(=O)Nc4cc(C(F)(F)F)ccc4F)cc3)cc2[nH]1` : 56.3%

Briefly, inhibition measured for `CCc1ccc(Oc2nccc(-c3c(-c4ccc(F)cc4)ncn3C3CCNCC3)n2)cc1` : 4.49%

Briefly, inhibition measured for `C[C@@H](Oc1cc(-n2cnc3ccc(OC4CCN(C)CC4)cc32)sc1C(N)=O)c1ccccc1Cl` : 65%

Briefly, inhibition measured for `NS(=O)(=O)c1ccc(Nc2cc(-c3ccc(O)c(F)c3)n[nH]2)cc1` : 68.3%

Briefly, inhibition measured for `Fc1ccc(-c2c(-c3ccncc3)nc3n2CCS3)cc1` : 2.96%

Briefly, inhibition measured for `COc1cc(C)c(N(C)C(=O)CN(C)C)cc1Nc1nc(Nc2cccc(F)c2C(N)=O)c2cc[nH]c2n1` : 2.56%

Briefly, inhibition measured for `CCN(CC)Cc1ccc(Nc2nccc(-c3cnn4ncccc34)n2)cc1` : 64.2%

Briefly, inhibition measured for `O=C(Nc1n[nH]c2cc(-c3cc(F)ccc3F)ccc12)C1CC1` : 13.2%

Briefly, inhibition measured for `COc1cc2ncn(-c3cc(OCc4ccccc4C(F)(F)F)c(C(C)=O)s3)c2cc1OC` : 19.7%

Briefly, inhibition measured for `Cc1nnc(-c2ccc(C)c(-c3ccc(C(=O)NCc4ccc(Cl)cc4)cc3)c2)o1` : 2%

Briefly, inhibition measured for `CNC(=O)c1cncc(/C=C/c2c(C)cccc2C)c1` : 48%

Briefly, inhibition measured for `NC(=O)c1ccc(Oc2nccc(-c3c(-c4ccc(F)cc4)ncn3C3CCNCC3)n2)cc1` : 7.97%

Briefly, inhibition measured for COc1ccc2cc(-c3c(-c4ccncc4)nc(-c4ccc([S+](C)[O-])cc4C)n3C)ccc2c1 (stereo not given) : 5.84%

Briefly, inhibition measured for `N#Cc1ccc(Oc2nccc(-c3c(-c4ccc(F)cc4)ncn3C3CCNCC3)n2)cc1` : 3.69%

Briefly, inhibition measured for `NCc1ccc(-n2c(-c3nonc3N)nc3cnccc32)cc1` : 8.66%

Briefly, inhibition measured for `COc1cccc(/C=N/Nc2ncnc3c2cnn3-c2cccc(OC)c2)c1` : 7.82%
